Experiment: Trolox equivalent absorbance capacity (TEAC) assay
Conditions: Trolox equivalents; absorbance 734 nm, 25 °C
Please respond with reported TEAC for every item in the list.
Numbers only; they are read as μM TE/g.

Fill in reported TEAC for this entry: CC(C)=CCc1c(O)cc(O)c2c1O[C@H](c1ccccc1)CC2=O
204.15

Fill in reported TEAC for this entry: CC(C)=CCc1c(O)cc2c(c1O)C(=O)C[C@@H](c1ccccc1)O2
43.17

Fill in reported TEAC for this entry: CC(C)=CCc1c(O)cc(O)c(C(=O)/C=C/c2ccccc2)c1O [Compound 3, 2',4',6'-trihydroxy-3'-prenylchalcone]
4529.01

Fill in reported TEAC for this entry: COc1ccc(-c2oc3cc(O)cc(O)c3c(=O)c2O)cc1O
1009.01
